These data points were gathered from patent US10968222B2.

assay: Lung and plasma pharmacokinetics in mice; format: in vivo, mouse; settings: mouse, 16.2 µg/mouse; BALB/c mice; oral aspiration; lung AUC in μg hr/g to plasma AUC in μg hr/mL; read-out: lung-to-plasma AUC ratio
Readout label: Kp
Form rule: numeric answer, no unit written next to it.

Given item CCc1cc(O)c(F)cc1-c1cc(F)c2c(-c3nc4c([nH]3)CCN(C(=O)[C@]35C[C@H]3CCN5)C4)n[nH]c2c1 , the value recorded as its Kp is 59.6
